Assay: The drug is tested on Eggerthella lenta strain: ATCC25559 for biotransformation. The drug concentrations were measured before and after a 12-h incubation by liquid-chromatography-coupled mass spectrometry (LC–MS)
Details: 2 µM
measured.quantity: Bacterial Biotransformation

# example entries with known answers
INSERT INTO measurements (compound, measured_quantity, result) VALUES
  ('Br.CN(C)CCCC1(c2ccc(F)cc2)OCc2cc(C#N)ccc21 (centres undefined) [CITALOPRAM HYDROBROMIDE]', 'Bacterial Biotransformation', 'Compound NOT metabolized'),
  ('COc1ccc(Cc2nccc3cc(OC)c(OC)cc23)cc1OC [PAPAVERINE]', 'Bacterial Biotransformation', 'Compound NOT metabolized'),
  ('CCOC(=O)C1=C(C)NC(C)=C(C(=O)OC)C1c1cccc([N+](=O)[O-])c1 (centres undefined) [NITRENDIPINE]', 'Bacterial Biotransformation', 'Compound metabolized'),
  ('CN(C)C(=O)Oc1cccc([N+](C)(C)C)c1.[Br-] [NEOSTIGMINE BROMIDE]', 'Bacterial Biotransformation', 'Compound NOT metabolized'),
  ('O=C1C(CC[S+]([O-])c2ccccc2)C(=O)N(c2ccccc2)N1c1ccccc1 (centres undefined) [SULFINPYRAZONE]', 'Bacterial Biotransformation', 'Compound metabolized');

Query: What measured Bacterial Biotransformation goes with CCN(CC)CCCC(C)Nc1c2ccc(Cl)cc2nc2ccc(OC)cc12 (centres undefined) [QUINACRINE] ?
Response: Compound NOT metabolized

Query: So what's the measured Bacterial Biotransformation for this one? CC(NC(C)(C)C)C(=O)c1cccc(Cl)c1 (centres undefined) [BUPROPION]
Response: Compound NOT metabolized

Query: Give the measured Bacterial Biotransformation of CC12CC3CC(C)(C1)CC(N)(C3)C2 [MEMANTINE] .
Response: Compound NOT metabolized

Query: Give the measured Bacterial Biotransformation of COc1ccccc1OCCNCC(O)COc1cccc2[nH]c3ccccc3c12 (centres undefined) [CARVEDILOL] .
Response: Compound NOT metabolized

----------
Experiment: The drug is tested on Ruminococcus gnavus strain: ATCC29149 for biotransformation. The drug concentrations were measured before and after a 12-h incubation by liquid-chromatography-coupled mass spectrometry (LC–MS)
Settings: mediterraneibacter gnavus, 2 µM
measured.quantity: Bacterial Biotransformation

INSERT INTO assay_data (molecule, result) VALUES
  ('CN(C)CC(c1ccc(O)cc1)C1(O)CCCCC1.O=C(O)CCC(=O)O (stereo unspecified) [DESVENLAFAXINE SUCCINATE]', 'Compound NOT metabolized'),
  ('C=CCc1ccccc1OCC(O)CNC(C)C (stereo unspecified) [ALPRENOLOL]', 'Compound NOT metabolized'),
  ('CC#C[C@]1(O)CC[C@H]2[C@@H]3CCC4=CC(=O)CCC4=C3[C@@H](c3ccc(N(C)C)cc3)C[C@@]21C [MIFEPRISTONE]', 'Compound NOT metabolized'),
  ('CN[C@H]1CC[C@@H](c2ccc(Cl)c(Cl)c2)c2ccccc21 [SERTRALINE]', 'Compound NOT metabolized'),
  ('Br.COc1ccc2c(c1)[C@]13CCCC[C@@H]1[C@H](C2)N(C)CC3.O [DEXTROMETHORPHAN HYDROBROMIDE]', 'Compound NOT metabolized'),
  ('COc1c2occc2cc2ccc(=O)oc12 [METHOXSALEN]', 'Compound metabolized');

Query: Need Bacterial Biotransformation, item OCCN1CCN(CCCN2c3ccccc3Sc3ccc(C(F)(F)F)cc32)CC1 [FLUPHENAZINE]
Response: Compound NOT metabolized

Query: Consider the molecule C#C[C@]1(OC(C)=O)CC[C@H]2[C@@H]3CCC4=CC(=O)CC[C@@H]4[C@H]3CC[C@@]21C [NORETHINDRONE ACETATE] and give its measured Bacterial Biotransformation.
Response: Compound metabolized

Query: Field request: Bacterial Biotransformation | item: CC(=O)O[C@]1(C(C)=O)CC[C@H]2[C@@H]3C=C(C)C4=CC(=O)CC[C@]4(C)[C@H]3CC[C@@]21C [MEGESTROL ACETATE]
Response: Compound NOT metabolized

Query: Please report the recorded Bacterial Biotransformation for C#C[C@]1(O)CC[C@H]2[C@@H]3CCC4=CC(=O)CC[C@@H]4[C@H]3CC[C@@]21CC [LEVONORGESTREL] .
Response: Compound metabolized

Query: Could you share which Bacterial Biotransformation value was measured for CC(=O)OCC(=O)[C@@]1(O)[C@@H](C)C[C@H]2[C@@H]3CCC4=CC(=O)C=C[C@]4(C)[C@@]3(F)[C@@H](O)C[C@@]21C [BETAMETHASONE ACETATE] ?
Response: Compound NOT metabolized

Query: Which Bacterial Biotransformation value belongs to CN1C(C(=O)Nc2ccccn2)=C(O)c2sccc2S1(=O)=O [TENOXICAM] ?
Response: Compound NOT metabolized

----------
Settings: bacteroides thetaiotaomicron, 12 h, 2 µM
Description: The drug is tested on Bacteroides thetaiotaomicron strain: 3731 for biotransformation. The drug concentrations were measured before and after a 12-h incubation by liquid-chromatography-coupled mass spectrometry (LC–MS)
measured.quantity: Bacterial Biotransformation

Recorded results for 6 compounds are shown here.
INSERT INTO assay_data (compound, measured_quantity, result) VALUES
  ('COc1cc2nc(N(C)CCCNC(=O)C3CCCO3)nc(N)c2cc1OC (stereo not drawn)', 'Bacterial Biotransformation', 'Compound NOT metabolized'),
  ('CCOC(=O)C1=C(C)NC(C)=C(C(=O)OC)C1c1cccc([N+](=O)[O-])c1 (stereo not drawn)', 'Bacterial Biotransformation', 'Compound metabolized'),
  ('Cc1ccnc2c1NC(=O)c1cccnc1N2C1CC1', 'Bacterial Biotransformation', 'Compound NOT metabolized'),
  ('CCOC(=O)[C@H](CCc1ccccc1)N[C@H]1CCc2ccccc2N(CC(=O)O)C1=O', 'Bacterial Biotransformation', 'Compound metabolized'),
  ('NC12CC3CC(CC(C3)C1)C2', 'Bacterial Biotransformation', 'Compound NOT metabolized'),
  ('CCOC(=O)C1=C[C@]2(CC)CCCN3CCc4c(n1c1ccccc41)[C@@H]32', 'Bacterial Biotransformation', 'Compound NOT metabolized');

Query: I'd like to know its Bacterial Biotransformation. The compound in question is "N[C@@H](Cc1ccc(N(CCCl)CCCl)cc1)C(=O)O"
Response: Compound metabolized

Query: Consider the compound "O=C(CCCN1CCC2(CC1)C(=O)NCN2c1ccccc1)c1ccc(F)cc1" and give its measured Bacterial Biotransformation.
Response: Compound NOT metabolized

Query: Tell me the measured Bacterial Biotransformation of "CC(=O)CCCCn1c(=O)c2c(ncn2C)n(C)c1=O" , please.
Response: Compound NOT metabolized

Query: Name the recorded Bacterial Biotransformation for "CCc1nn(CCCN2CCN(c3cccc(Cl)c3)CC2)c(=O)n1CCOc1ccccc1" .
Response: Compound NOT metabolized

Query: Would you mind telling me what Bacterial Biotransformation value was observed for Cc1nc2n(c(=O)c1CCN1CCC(c3noc4cc(F)ccc34)CC1)CCCC2O (stereo not drawn) ?
Response: Compound metabolized

Query: Can you look up the measured Bacterial Biotransformation of CCCCCNC(=N)N/N=C/c1c[nH]c2ccc(OC)cc12.O=C(O)/C=C\C(=O)O [TEGASEROD MALEATE] for me?
Response: Compound NOT metabolized

Query: Can you look up the measured Bacterial Biotransformation of C#C[C@]1(OC(C)=O)CC[C@H]2[C@@H]3CCC4=C[C@@H](OC(C)=O)CC[C@@H]4[C@H]3CC[C@@]21C [ETHYNODIOL DIACETATE] for me?
Response: Compound NOT metabolized

----------
Assay: The drug is tested on Bifidobacterium ruminantium strain: fecal isolate for biotransformation. The drug concentrations were measured before and after a 12-h incubation by liquid-chromatography-coupled mass spectrometry (LC–MS)
Conditions: 2 µM
measured.quantity: Bacterial Biotransformation

Use the examples below as a reference point.
INSERT INTO results (compound, measured_quantity, result) VALUES
  ('CC1Cc2ccccc2N1NC(=O)c1ccc(Cl)c(S(N)(=O)=O)c1 (centres undefined) [INDAPAMIDE]', 'Bacterial Biotransformation', 'Compound NOT metabolized'),
  ('CC[C@@]1(O)C(=O)OCc2c1cc1n(c2=O)Cc2cc3c(CN(C)C)c(O)ccc3nc2-1', 'Bacterial Biotransformation', 'Compound NOT metabolized'),
  ('O=C(O)CCc1nc(-c2ccccc2)c(-c2ccccc2)o1', 'Bacterial Biotransformation', 'Compound metabolized'),
  ('CC(=O)OCC(=O)NCCCOc1cccc(CN2CCCCC2)c1 [ROXATIDINE ACETATE]', 'Bacterial Biotransformation', 'Compound metabolized'),
  ('CC[C@H](C)C(=O)O[C@H]1CCC=C2C=C[C@H](C)[C@H](CC[C@@H]3C[C@@H](O)CC(=O)O3)[C@H]21', 'Bacterial Biotransformation', 'Compound metabolized');

Query: For "CCCCc1nc(Cl)c(CO)n1Cc1ccc(-c2ccccc2-c2nn[nH]n2)cc1" , what is its reported Bacterial Biotransformation?
Response: Compound metabolized

----------
Experiment: The drug is tested on Bacteroides fragilis strain: ATCC43859 for biotransformation. The drug concentrations were measured before and after a 12-h incubation by liquid-chromatography-coupled mass spectrometry (LC–MS)
Settings: 2 µM
measured.quantity: Bacterial Biotransformation

// known answers, use as guide
INSERT INTO measurements (compound, measured_quantity, result) VALUES
  ('O=c1[nH]c2ccccc2n1CCCN1CCC(n2c(=O)[nH]c3cc(Cl)ccc32)CC1 [DOMPERIDONE]', 'Bacterial Biotransformation', 'Compound NOT metabolized'),
  ('CCOC(=O)C1=C(C)NC(C)=C(C(=O)OC)C1c1cccc([N+](=O)[O-])c1 (stereo unspecified) [NITRENDIPINE]', 'Bacterial Biotransformation', 'Compound metabolized'),
  ('CCN(CC)CCOC(=O)C(Cc1cccc2ccccc12)CC1CCCO1.O=C(O)C(=O)O (stereo unspecified) [NAFRONYL OXALATE]', 'Bacterial Biotransformation', 'Compound NOT metabolized'),
  ('COc1c2occc2cc2ccc(=O)oc12 [METHOXSALEN]', 'Bacterial Biotransformation', 'Compound metabolized');

Query: # lookup: Bacterial Biotransformation of O=C(Nc1ccccc1)OCC(CN1CCCCC1)OC(=O)Nc1ccccc1 (stereo unspecified) [DIPERODON]
Response: Compound NOT metabolized

Query: // query Bacterial Biotransformation value for entry CC(C)OC(=O)C(C)(C)Oc1ccc(C(=O)c2ccc(Cl)cc2)cc1 [FENOFIBRATE]
Response: Compound NOT metabolized

Query: May I ask what Bacterial Biotransformation has been recorded for COc1ccc2c(c1)c(CC(=O)O)c(C)n2C(=O)c1ccc(Cl)cc1 [INDOMETHACIN] ?
Response: Compound metabolized

Query: # Bacterial Biotransformation lookup, item CNCC[C@H](Oc1cccc2ccccc12)c1cccs1 [DULOXETINE]
Response: Compound NOT metabolized

Query: Item "CN1CCc2c(c3ccccc3n2Cc2ccccc2)C1.CN1CCc2c(c3ccccc3n2Cc2ccccc2)C1.O=S(=O)(O)c1cccc2c(S(=O)(=O)O)cccc12" has what recorded Bacterial Biotransformation?
Response: Compound NOT metabolized

Query: Quick one: Bacterial Biotransformation for CN1CCC[C@@H]1CCO[C@](C)(c1ccccc1)c1ccc(Cl)cc1.O=C(O)/C=C/C(=O)O [CLEMASTINE FUMARATE] ?
Response: Compound NOT metabolized

Query: Recorded Bacterial Biotransformation of Cc1nc(-c2ccc(OCC(C)C)c(C#N)c2)sc1C(=O)O [FEBUXOSTAT] , please.
Response: Compound metabolized

Query: # lookup: Bacterial Biotransformation of OC(c1cc(C(F)(F)F)nc2c(C(F)(F)F)cccc12)C1CCCCN1 (stereo unspecified) [MEFLOQUINE]
Response: Compound NOT metabolized

Query: Could you share which Bacterial Biotransformation value was measured for CC(C)(C)NC(=O)[C@H]1CC[C@H]2[C@@H]3CC[C@H]4NC(=O)C=C[C@]4(C)[C@H]3CC[C@]12C [FINASTERIDE] ?
Response: Compound metabolized

Query: Item under review: NS(=O)(=O)c1cc2c(cc1Cl)N=C(CSCc1ccccc1)NS2(=O)=O [BENZTHIAZIDE] . Reported Bacterial Biotransformation?
Response: Compound NOT metabolized

Query: Record request: Bacterial Biotransformation value, item O=C(O)c1cc(/N=N/c2ccc(S(=O)(=O)Nc3ccccn3)cc2)ccc1O [SULFASALAZINE]
Response: Compound metabolized

Query: Requested read-out: Bacterial Biotransformation. Entry: CC(=O)OCC(=O)[C@@]1(O)[C@@H](C)C[C@H]2[C@@H]3CCC4=CC(=O)C=C[C@]4(C)[C@@]3(F)[C@@H](O)C[C@@]21C [BETAMETHASONE ACETATE]
Response: Compound metabolized
